This collection of values is drawn from the supplement of paper PMC7125110.

B1: glmS ribozyme (parent)
chain: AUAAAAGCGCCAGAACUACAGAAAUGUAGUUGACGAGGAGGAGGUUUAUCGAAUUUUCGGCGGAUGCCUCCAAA

# Variants of: B1
# methodSummary: self-cleavage kobs at 2500 uM GlcN6P; higher = faster cleavage; RNA array
# conditionDescription: with glucosamine-6-phosphate
Variants at the floor of the assay were thinned out.
measurementLabel: self-cleavage kobs at 2500 uM GlcN6P

| mutationName | self-cleavage kobs at 2500 uM GlcN6P |
| --- | --- |
| A14G A42C U49C | < 1e-05 s⁻¹ |
| C34A U45G G66U U69G | < 1e-05 s⁻¹ |
| A36U A48U G60U C68A | < 1e-05 s⁻¹ |
| G9U A33C C67G | < 1e-05 s⁻¹ |
| G7A A12G G35A | < 1e-05 s⁻¹ |

Go through the items and report each one's self-cleavage kobs at 2500 uM GlcN6P.
1. U30G G32C
2. U55G G60U G63A G66C
3. C10A A12C G66U
4. C11U C19A

Response:
1. 0.000149 s⁻¹
2. < 1e-05 s⁻¹
3. < 1e-05 s⁻¹
4. 0.000235 s⁻¹
